Below, each of the binders is paired with its reported Human AmyR3 potency [EC50 (pM)] value.
system: T1, human amylin-3 (a) receptor (human, UniProt P30988 25-474; O60896 24-148)
T1 sequence (looked up) 1: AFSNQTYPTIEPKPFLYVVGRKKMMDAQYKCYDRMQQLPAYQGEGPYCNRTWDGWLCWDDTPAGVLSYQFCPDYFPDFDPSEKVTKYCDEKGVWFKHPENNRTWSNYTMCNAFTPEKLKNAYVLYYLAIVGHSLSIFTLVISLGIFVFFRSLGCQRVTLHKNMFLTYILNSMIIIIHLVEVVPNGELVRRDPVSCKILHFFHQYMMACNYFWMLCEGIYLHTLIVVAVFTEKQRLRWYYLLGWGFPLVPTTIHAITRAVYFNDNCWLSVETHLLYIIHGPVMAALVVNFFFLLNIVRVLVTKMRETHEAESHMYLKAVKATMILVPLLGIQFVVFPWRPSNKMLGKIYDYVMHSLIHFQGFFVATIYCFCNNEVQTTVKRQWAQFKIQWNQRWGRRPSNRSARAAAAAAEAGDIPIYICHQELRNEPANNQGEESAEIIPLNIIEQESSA
T1 sequence (looked up) 2: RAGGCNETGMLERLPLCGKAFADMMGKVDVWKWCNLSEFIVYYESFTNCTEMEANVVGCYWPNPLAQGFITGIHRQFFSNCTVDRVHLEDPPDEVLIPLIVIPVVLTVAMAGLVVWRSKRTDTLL
assay_text: cell-based or functional assay
Starred links: 1 amine or outer side, 2 acyl side, 3 side chain; linkers in the order of their positions; H or OH if unused. Non-standard residues stand in square brackets, D forms with d. Groups on a side chain read outwards from the residue. *: point of attachment. C20 diacid = O=C(O)CCCCCCCCCCCCCCCCCCC(=O)*; C18 diacid = O=C(O)CCCCCCCCCCCCCCCCC(=O)*; C16 diacid = O=C(O)CCCCCCCCCCCCCCC(=O)*; γGlu = O=C(O)[C@H](CCC(=O)[*:2])N[*:1]; εLys = N[C@@H](CCCCN[*:1])C(=O)[*:2]; Trx = NC[C@H]1CC[C@H](C(=O)O)CC1; AEEA = NCCOCCOCC(=O)O; Aib = CC(C)(N)C(=O)O
Write the answer as a number in pM, unit excluded.

Sample answers from the record:
[[record]]
binder = "Compound 0159 (peptide) peptide: H[Aib]EGTFTSDVSSYLEGQAAK([εLys-AEEA-AEEA-γGlu-C18 diacid])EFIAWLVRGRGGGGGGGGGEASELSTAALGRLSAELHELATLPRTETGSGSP-NH2"
reported_value = 19.3

[[record]]
binder = "Compound 0007 (peptide) peptide: H[Aib]EGTFTSDVSSYLEGQAAK([AEEA-AEEA-γGlu-C18 diacid])EFIAWLVRGRGGGEASELSTAALGRLSAELHELATLPRTETGSGSP-NH2"
reported_value = 9.4

[[record]]
binder = "Compound 0128 (peptide) peptide: H[Aib]EGTFTSDVSSYLEEQAARK([AEEA-AEEA-γGlu-C18 diacid])FIEWLVRGK([AEEA-AEEA-γGlu-C18 diacid])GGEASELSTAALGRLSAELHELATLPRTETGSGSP-NH2"
reported_value = 110


Human AmyR3 potency [EC50 (pM)] lookup needed for Compound 0415 (peptide) peptide: H[Aib]EGTFTSDVSSYLEEK([AEEA-AEEA-γGlu-Trx-C20 diacid])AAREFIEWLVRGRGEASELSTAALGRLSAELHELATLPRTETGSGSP-NH2 , thanks. 16.1

Human AmyR3 potency [EC50 (pM)] lookup needed for Compound 0564 (also: Lys on Ado carries two C16 diacid-gGlu-Ado-Ado groups, on its alpha and epsilon amines) peptide: H[Aib]EGTFTSDVSK([AEEA-Lys])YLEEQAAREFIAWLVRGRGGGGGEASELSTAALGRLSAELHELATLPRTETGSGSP-NH2 , thanks. 14.5

Human AmyR3 potency [EC50 (pM)] lookup needed for Compound 0565 (peptide) peptide: H[Aib]EGTFTSDVSK([AEEA-AEEA-γGlu-C20 diacid])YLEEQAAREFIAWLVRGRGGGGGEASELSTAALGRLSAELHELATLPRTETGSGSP-NH2 , thanks. 6.2

Human AmyR3 potency [EC50 (pM)] lookup needed for Compound 0638 (peptide) peptide: H[Aib]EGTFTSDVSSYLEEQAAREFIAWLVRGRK([AEEA-AEEA-γGlu-C20 diacid])GGGGSGGGEASELSTAALGRLSAELHELATLPRTETGSGSP-NH2 , thanks. 6.9

Human AmyR3 potency [EC50 (pM)] lookup needed for Compound 0280 (peptide) peptide: H[Aib]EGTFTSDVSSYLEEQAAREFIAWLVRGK([AEEA-AEEA-γGlu-C16 diacid])GGGGGEASELSTAALGRLSAELHK([AEEA-AEEA-γGlu-C16 diacid])LATLPRTETGSGSP-NH2 , thanks. 18
